# MEASURED ON: GAPD siRNA
# EXPERIMENT DESCRIPTION: Isothermal calorimetry (ITC) binding of SMOC to siRNA
# STUDY CONDITIONS: 6G-SMOC 250 μM in syringe, siRNA 3.5 μM in cell, FIG. 2
pKd: −log10 of the molar value.
QUANTITY NAME: pKd

Query the reported pKd for GAPD siRNA; item: N=C(N)NCCOc1cccc(-c2ccc(-c3cccc(OCCNC(=N)N)c3OCCNC(=N)N)c(OCCNC(=N)N)c2OCCNC(=N)N)c1OCCNC(=N)N [6G-SMOC] ~4.10

The measured values listed here are drawn from patent US20120077863A1.
